Entries and their measured GI50 follow.
Test system: NCI-H226
ASSAY_PROTOCOL: NCI tumour cell line growth inhibition, 48 h
The source made the active and inactive calls. Rule as the data show it: active = GI50 up to about 1.1 µM and inactive = higher.
MEASURED_METRIC: GI50

Nc1ccc(Oc2ccc(C3(c4ccc(Oc5ccc(N)c(O)c5)cc4)C4CC5CC(C4)CC3C5)cc2)cc1O
1.83 µM (inactive)
CCCCCCCCCCCCCCCCCCNc1ccn(C2OC(CO)C(OP(=O)(O)OCC(O)COP(=O)(O)OCC3OC(n4cc(F)c(NCCCCCCCCCCCCCCCCCC)nc4=O)CC3O)C2O)c(=O)n1 (stereo unspecified)
> 50 µM (inactive)
CC[C@@]1(O)C(=O)OCc2c1cc1n(c2=O)Cc2c-1nc1ccc(O)cc1c2CC[Si](C)(C)C
0.0194 µM (active)
CCCC(=O)OCC(COC(=O)CCC)OC(=O)CCC
> 100 µM (inactive)
COc1ccccc1OCc1nnc(SCC(=O)O)n1-c1ccccc1
> 100 µM (inactive)
N#Cc1c(-c2ccccc2)c(CN2CCCCC2)c(=O)n2c1[nH]c1ccccc12
> 100 µM (inactive)

* * *

Tested on: LXFL 529
ASSAY_PROTOCOL: NCI tumour cell line growth inhibition, 48 h
Activity calls are given as the source filed them. Rule as the data show it: active = GI50 up to about 1.1 µM and inactive = higher.
Possible outcomes: active, inactive

COc1cc2c(c(OC)c1OC)-c1ccc(SC)c(=O)cc1[C@@H](NC(=O)C(F)(F)F)CC2
active
CC(C)(C)C(=O)OC12/C(=N/O)CCCCCC1c1ccccc12 (centres undefined)
inactive
Nc1c(S(=O)(=O)c2ccc(Cl)cc2)c2nc3ccccc3nc2n2ccnc12
inactive
CCCCCN(CCCCC)C(=O)[C@H](CCC(=O)OCc1ccccc1)NC(=O)c1cc2ccccc2[nH]1
inactive
CN/N=C(/CC(=O)c1sc(NNC(C)=O)nc1C)C(=O)Nc1ccc(OC)cc1OC
inactive
O=S1(=O)c2ccccc2N(O)C2=NCCN21
inactive
COC(=O)C(=O)C(C(=O)C(=O)Nc1cccc(C(C)=O)c1)c1nc2ccc([N+](=O)[O-])cc2nc1O (centres undefined)
inactive
O=S1(=O)CSc2ccc3ccccc3c2-c2c1ccc1ccccc21
inactive
O=C(Cc1nc2ccccc2s1)C(=O)Nc1ccc(Cl)cc1Cl
inactive

* * *

Tested on: RXF 393
ASSAY_PROTOCOL: NCI tumour cell line growth inhibition, 48 h
Active and inactive are the calls of the source. Rule as the data show it: active = GI50 up to about 1.1 µM and inactive = higher. Residues, ends and D or L forms follow the SMILES beside them. *: point of attachment. Boc = CC(C)(C)OC(=O)*; OBn = c1ccc(CO*)cc1
MEASURED_METRIC: GI50

NC(=S)NNC(=S)NC(=O)c1ccco1
> 10 µM (inactive)
NC(=O)NC(=O)c1cnccn1
> 100 µM (inactive)
Clc1cc(Cl)cc(/C=N/C23CC4CC(CC(C4)C2)C3)c1
> 10 µM (inactive)
COc1ccc(/C=C2\S/C(=N/Nc3nc(-c4ccccc4)cs3)NC2=O)cc1OC
4.5 µM (inactive)
C[C@H]1/C(=C/C(=O)OCCN(C)C)CC[C@H]2[C@H]1C(=O)C[C@H]1C(C)(C)[C@@H](O)CC[C@]21C
> 100 µM (inactive)
COc1cccc(/C=C(/C(=O)O)c2cc(OC)c(OC)c(OC)c2)c1
45.2 µM (inactive)
CC(NC(=O)CNC(=O)OC(C)(C)C)C(=O)NC(Cc1ccccc1)C(=O)OCc1ccccc1 (stereo not drawn) (Boc-Gly-Ala-Phe-OBn; configuration not given here)
> 100 µM (inactive)
Cc1nc2cc3nc4ccccc4c(O)c3cc2s1
> 100 µM (inactive)
CC(=O)OCc1cn(S(=O)(=O)c2ccc(C)cc2)cn1
> 100 µM (inactive)
COC(=O)C(CC(=O)Nc1ccc(C)cc1)C(=O)C(=O)Nc1c(C(C)C)cccc1C(C)C (centres undefined)
> 100 µM (inactive)
COC(=O)C(C(=O)C(=O)Nc1cccc([N+](=O)[O-])c1)c1nc2ccc([N+](=O)[O-])cc2nc1O (centres undefined)
> 100 µM (inactive)
CN(Cc1c2ccccc2cc2ccccc12)S(=O)(=O)c1ccc(-c2c3nc(c(-c4ccc(S(=O)(=O)N(C)Cc5c6ccccc6cc6ccccc56)cc4)c4ccc([nH]4)c(-c4ccc(S(=O)(=O)N(C)Cc5c6ccccc6cc6ccccc56)cc4)c4nc(c(-c5ccc(S(=O)(=O)N(C)Cc6c7ccccc7cc7ccccc67)cc5)c5ccc2[nH]5)C=C4)C=C3)cc1
42.1 µM (inactive)
CSCC[C@H](NC(=O)[C@H](CC(C)C)NC(=O)[C@@H](Cc1ccccc1)NC(=O)CNC(=O)[C@@H](NC(=O)[C@H](C)NC(=O)[C@H](Cc1c[nH]c2ccccc12)NC(=O)[C@H](CCC(N)=O)NC(=O)[C@H](N)CC(N)=O)C(C)C)C(N)=O
> 12.5 µM (inactive)
O=C(O)c1ccccc1C(=O)Nc1cc2c(cc1Br)-c1ccccc1C2=O
48 µM (inactive)
N#Cc1c(-c2ccccc2)c(CN2CCCCC2)c(=O)n2c1[nH]c1ccccc12
32.5 µM (inactive)
c1ncc(C23C4C5C6C4C2C6C53)[nH]1 (centres undefined)
> 100 µM (inactive)
C[C@@H]1C(=O)O[C@H]1[C@H](O)CO
> 100 µM (inactive)
O=S(=O)(O)c1cc(O)c(/N=N\C2S(=O)(=O)OCCOS2(=O)=O)c2ccccc12
> 100 µM (inactive)
OCn1nc2c(C3OCCO3)cc3ccccc3n2c1=S
> 100 µM (inactive)
COc1cc2c(cc1C)NC(=O)/C2=C\c1ccncc1
3.76 µM (inactive)
O=c1cc(N2CCCC2)[nH]c(=O)n1-c1ccc(Cl)cc1
> 100 µM (inactive)
CC(C)(C)C(=O)OC12/C(=N/O)CCCCCC1c1ccccc12 (centres undefined)
19.5 µM (inactive)
Cn1cc2ccccc2c1-c1nc(F)nc(Oc2ccc3c(c2)CC[C@@H]2C3CC[C@@]3(C)C2C[C@H](O)[C@@H]3O)n1 (some centres undefined)
19.4 µM (inactive)
CCOC(=O)c1cc(C2CCN(c3ccccc3)C2=O)c(C(=O)/C=C(/C)N)[nH]1 (centres undefined)
37.9 µM (inactive)
CC(=O)OC1C(=O)C(O)C(C)OC1O[C@@H]1C[C@@]2(C)[C@@H]3CC=C4[C@@H](C[C@H](O)C(=O)C4(C)C)[C@]3(C)C(=O)C[C@]2(C)[C@H]1[C@@](C)(O)C(=O)/C=C/C(C)(C)O (some centres undefined)
0.845 µM (active)
NN/C(=N\c1ccc(Cl)cc1)NS(=O)(=O)c1ccc(S(=O)(=O)c2ccccc2)s1
15.5 µM (inactive)
CCCCCNc1nonc1N
> 100 µM (inactive)
CCOC(=O)c1csc(NC(=O)CCN2CCN(C)CC2)n1
> 100 µM (inactive)
COc1ccc(C(=O)/C=C/c2ccc(OCCCOc3ccc(/C=C/C(=O)c4ccc(OC)cc4)cc3)cc2)cc1
> 100 µM (inactive)
